# tested.on: T1, EhAGCK2 WT (Entamoeba histolytica AGC family kinase 2, EHI_053040), full-length recombinant His-tagged protein (Entamoeba histolytica, UniProt C4M3C2 1-434)
# T1 construct: source: E. coli C41(DE3), purified (Ni2+-NTA)
# T1 sequence: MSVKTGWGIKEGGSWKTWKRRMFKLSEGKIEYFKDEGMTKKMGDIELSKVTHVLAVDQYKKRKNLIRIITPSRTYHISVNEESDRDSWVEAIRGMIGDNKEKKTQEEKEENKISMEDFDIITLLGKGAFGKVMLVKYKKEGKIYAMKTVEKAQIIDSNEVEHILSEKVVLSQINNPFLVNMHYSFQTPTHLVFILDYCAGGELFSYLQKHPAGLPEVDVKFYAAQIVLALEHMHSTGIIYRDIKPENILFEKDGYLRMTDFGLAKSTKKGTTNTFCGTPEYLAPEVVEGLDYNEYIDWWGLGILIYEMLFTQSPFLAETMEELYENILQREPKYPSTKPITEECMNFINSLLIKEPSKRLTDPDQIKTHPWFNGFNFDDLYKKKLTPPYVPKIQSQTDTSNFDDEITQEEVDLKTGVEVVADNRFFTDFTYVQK
# experiment: MST; His-tagged kinase labelled with RED-tris-NTA 2nd Generation dye, kept constant (50 nM by the legend); unlabelled peptide in 16 1:1 dilutions, 500 uM to 153 nM as printed; 50 mM Tris-Cl pH 8, 150 mM NaCl, 1 mM beta-ME, 5% glycerol; 25 C; Monolith NT.115, 50% LED, medium MST power
# settings: both partners purified
// reported Kd for each item listed
Kindly answer with a numeric value in nM, unit omitted.

GRPRTTSFAESCK (also called human GSK3 peptide substrate; source: synthetic peptide) [human GSK3 (HsGSK3) peptide]: 84.8

Value of Kd reported for the binder KAGGADYSFNTTSN [EhCoactosin peptide (from Coactosin, EHI_168340)] is 413

Where do these numbers come from? They come from paper PMC11642994.
